The measurements presented in this section are drawn from patent US20250312269A1.

Test: Particle size distribution (PSD) analysis by laser diffraction of feed and micronised compound
Type: physicochemical
Details: primary pressure of 4 bar, lens R1/R3/R5 per sample
# D10 per record follows
reported-metric: D10 (μm)

molecule="CN(C)CCc1c[nH]c2cccc(O)c12 [Micronised psilocin, psilocin]" reported_metric=D10 reported_result=0.44
molecule="CN(C)CCc1c[nH]c2cccc(OP(=O)(O)O)c12 [Micronised psilocybin, psilocybin]" reported_metric=D10 reported_result=0.45
molecule="CN(C)CCc1c[nH]c2cccc(OP(=O)(O)O)c12 [Feed psilocybin, psilocybin]" reported_metric=D10 reported_result=1.16
molecule="CN(C)CCc1c[nH]c2cccc(O)c12 [Feed psilocin, psilocin]" reported_metric=D10 reported_result=20.36

====

Assay: Particle size distribution (PSD) analysis by laser diffraction of feed and micronised compound
Type: physicochemical
Conditions: primary pressure of 4 bar, lens R1/R3/R5 per sample
Measured D90, listed per entry for reference.
reported-metric: D90

molecule="CN(C)CCc1c[nH]c2cccc(OP(=O)(O)O)c12 [Micronised psilocybin, psilocybin]" reported_metric=D90 reported_result="3.13 μm"
molecule="CN(C)CCc1c[nH]c2cccc(OP(=O)(O)O)c12 [Feed psilocybin, psilocybin]" reported_metric=D90 reported_result="16.32 μm"
molecule="CN(C)CCc1c[nH]c2cccc(O)c12 [Micronised psilocin, psilocin]" reported_metric=D90 reported_result="2.27 μm"
molecule="CN(C)CCc1c[nH]c2cccc(O)c12 [Feed psilocin, psilocin]" reported_metric=D90 reported_result="232.08 μm"

====

Assay: Particle size distribution (PSD) analysis by laser diffraction of feed and micronised compound
Assay type: physicochemical
Conditions: primary pressure of 4 bar, lens R1/R3/R5 per sample
reported-metric: D50

molecule="CN(C)CCc1c[nH]c2cccc(O)c12 [Micronised psilocin, psilocin]" reported_result="1.07 μm"
molecule="CN(C)CCc1c[nH]c2cccc(OP(=O)(O)O)c12 [Feed psilocybin, psilocybin]" reported_result="5.46 μm"
molecule="CN(C)CCc1c[nH]c2cccc(O)c12 [Feed psilocin, psilocin]" reported_result="106.05 μm"
molecule="CN(C)CCc1c[nH]c2cccc(OP(=O)(O)O)c12 [Micronised psilocybin, psilocybin]" reported_result="1.20 μm"

====

Assay: Non-compartmental analysis of DMT IM bioavailability from digitised published data
Format: in vivo
Conditions: human, blood, intramuscular, 0.7 mg/kg, 0.7 mg/kg IM; AUC of IV infusion dose 0.2 mg/kg
reported-metric: bioavailability (%)

chemical_smiles=CN(C)CCc1c[nH]c2ccccc12 reported_result=132
